experiment: yeast display, Sf9 membrane polyspecificity reagent, FACS + sequencing; frameworks hold sequencing errors
READOUT: polyreactivity (PSR sort gate)

Study these solved cases before continuing.
ENTRY_SEQUENCE | REPORTED_VALUE
QVQLVESGGGLVQAGGSLRLSCAASGFTYRYYAMGWYRQSPGKERELVAAISSGGNTRYADSVKGRFTISRDNAKNTVYLQMTSLKPEDTAVYYCARRPGDWKYVYTGDYWGQGTQVTVSS | high polyreactivity
QVQLVESGGGLVQAGGSLRLSCAASGRIFGTYAMGWYRQAPGKERELVASITDRGDSTYADSVKGRFTISRDNAKNTVYLQMNSLKPEDTAVYYCAVGYNSKLAVGMYYWGQGTQVTVSS | low polyreactivity
QVQLVESGGGLVQAGGSLRLSCAASGSIFVYYAMGWYRPAPGKERELVASISRGGTSTYYADSVKGRFTISRDNAKNTVYFQMNSLKPEDTAVYYCAAQPYRTGTYDYWGQGTQVTVSS | low polyreactivity
QVQLVESGGGLVQAGGTIRISSAPSGRTLGCNAMGRSRQAPGKEWELVSAISYSGGDTTYADSVKGRFTISRDKAKNTVYLQMNSLKPEDTAVYYCAARGDYYVYAYNRRFVYLGQGTQVTVSS | low polyreactivity
QVQLVESGGGLVQAGGSLRLSCAASGNTFLYYGMGWYRQAPGKERELVAAITSGGITYYADSVKGRFTISRDNAKNTVYLQMNSLKPEETAVYFCNKDVGFTRPLYYWGQGTQVTVSS | low polyreactivity

query: Find the measured polyreactivity (PSR sort gate) of QVQLVESGGGLVQAGGTLRLSCAASGFIISRNAMGWYRQAPRKERELVAAITWPGGTTYYADSVKGRFTISRDNAKNTVYLQMISLKPEDTAVYYSAADEYGPHTFSPEYDSWGQGTQVTVSS and report it.
result: low polyreactivity

query: Find the measured polyreactivity (PSR sort gate) of QVQLVESGGGLVQAGGSLRLSCAASGRIFYRYAMGWYRQAPGKERELVAGITRGGSTYYADSVKGRFTISRDNAKNTVYLQMNSLKPEDTAVYYCNVRWSPAGTGLLDFWGQGSQVTVSS and report it.
result: high polyreactivity

query: Find the measured polyreactivity (PSR sort gate) of QVQLVESGGGLVQAGGSLRLSCAASGSTFVLYAMGWYRQAPGKERELVAAISTSGGRTYYADSVKGRFTISRDNAKNTVNLQMNSLKPEDTAVYYCAALTYVAQYDEYWGQGTQVTVSS and report it.
result: low polyreactivity

query: Find the measured polyreactivity (PSR sort gate) of QVQLVESGGGLVQAGGSLRLSCAASGITIYVYAMGWYRQAPGTERELVAAITRSGGITSYADSVKGRFTISRDNAKNTVYLQMNSLKPEDTAVYYVAAESTNLHYHIQGVGYWGQGTQVTVSS and report it.
result: low polyreactivity

query: Find the measured polyreactivity (PSR sort gate) of QVQLVESGGGLVQARGSLRLSCAASGSTFDLYAMGWYRQAPGKEREFVAAISSSGGTTYNADSVKGRFTSSRDNAKKTVYLQRKSLKPEDTAVYYCAAVRYYESRGGYDYWGQGTQVTVSS and report it.
result: low polyreactivity

query: Find the measured polyreactivity (PSR sort gate) of QVQLEESGGGLVQAGGSLRLSCAASGLTFVYNTMGMYRQAPGKERELVAAINWSGGRTYYADSVKGRFTISRDNAKNTVYLQMNSLKPEDTAVYYCAALYVPNTPTYKYDYWGQGTQVTVSS and report it.
result: low polyreactivity

Cited source: the nanobody polyreactivity screen of Harvey et al. (2022)
